kon listing for selected binders.
targetOrTestSystem: T1, monovalent hVISTA-ECD (human VISTA extracellular domain with His tail) (human, UniProt Q9H7M9 33-193)
T1 construct: analyte flowed over captured antibody; also called huVISTA-His
T1 sequence (Q9H7M9 other isoform, or with tags, fused parts or gaps limits assumed): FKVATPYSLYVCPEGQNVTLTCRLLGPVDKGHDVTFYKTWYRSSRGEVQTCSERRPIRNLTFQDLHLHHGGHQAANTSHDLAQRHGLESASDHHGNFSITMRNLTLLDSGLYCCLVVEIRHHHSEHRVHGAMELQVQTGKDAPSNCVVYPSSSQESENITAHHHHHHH
testName: SPR, pH 7.4
Respond with the bare value in M⁻¹ s⁻¹.

Check out these entries, answers already filled in.
So what's the measured kon for this one? P1-064392 (41F11_HC_Mutant: D31E/Y50W/S55E/Y100E 41F11_LC_Mutant: V29D/A64G/Q89E/R91T) (antibody, V domains shown, Kabat positions; also called P1-064392-1) VH: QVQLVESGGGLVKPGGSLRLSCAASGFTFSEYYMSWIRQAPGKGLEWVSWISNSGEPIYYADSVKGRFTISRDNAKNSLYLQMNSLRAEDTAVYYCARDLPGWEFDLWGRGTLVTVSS VL: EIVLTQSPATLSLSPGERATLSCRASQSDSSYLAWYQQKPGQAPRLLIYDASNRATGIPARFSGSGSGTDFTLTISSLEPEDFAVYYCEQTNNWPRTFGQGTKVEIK
470000

Follow-up item: P1-065333 (41F11_VH_T28P/Y50W/S55E/L96E/Y100E VK_A64G) (antibody, human IgG1, kappa, V domains shown, IgG1.3; also called P1-065333-1; VISTA.4 pH-independent progeny) VH: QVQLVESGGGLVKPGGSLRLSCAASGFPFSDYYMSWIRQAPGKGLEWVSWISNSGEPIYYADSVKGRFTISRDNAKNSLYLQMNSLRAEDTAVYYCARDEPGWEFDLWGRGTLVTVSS VL: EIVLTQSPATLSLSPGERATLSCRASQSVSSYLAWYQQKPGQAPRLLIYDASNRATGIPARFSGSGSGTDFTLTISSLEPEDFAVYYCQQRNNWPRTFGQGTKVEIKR
480000

Now look at this one.
So what's the measured kon for this one? P1-063001 (41F11_LC_Mutant: V29D/A64G/R91T) (antibody, V domains shown, also called P1-063001-5; P1-063001-6) VH: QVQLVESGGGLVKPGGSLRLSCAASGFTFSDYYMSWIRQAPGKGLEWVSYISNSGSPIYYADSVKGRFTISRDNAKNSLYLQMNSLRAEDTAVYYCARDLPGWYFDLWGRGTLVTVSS VL: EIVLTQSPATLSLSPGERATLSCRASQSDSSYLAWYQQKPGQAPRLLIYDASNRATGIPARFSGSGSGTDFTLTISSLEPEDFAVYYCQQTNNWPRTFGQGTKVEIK
340000

Recorded values, source patent US20220073617A1.
